Hey, just so you know, these numbers are from PubChem BioAssay AID434951.

Catalogue of EC50 readings, one per entry.
test_system: Hypoxia-inducible factor 1-alpha (Homo sapiens)
method: activators of HIF1alpha nuclear accumulation, confirmation, imaging, fluorescence, U2OS GFP-HIF1alpha (AID 434951)
condition_parameters: U2OS GFP-HIF1alpha nuclear intensity, high-content imaging
The source made the active and inactive calls.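 How the source made its calls: active means a fitted half-maximal concentration EC50 for the rise in nuclear signal no higher than ten times the top dose tested; inconclusive means flat fit with activity between 30% and 70%, or unusable fit; inactive means EC50 beyond ten times the top dose.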
metric: EC50

| compound | value_measured |
| --- | --- |
| CCN1/C(=C/c2ccc3cc(C)ccc3[n+]2CC)Sc2ccccc21 | 13.1 µM |
| COc1ccc(CC(=O)N2CCN(C(=O)Cc3ccc(OC)cc3)CC2)cc1 | > 35 µM (inactive) |
| O=C(Cn1c(Cc2ccccc2)nc2ccccc21)NCc1ccc2c(c1)OCO2 | > 35 µM (inactive) |
| Cc1ncc(CO)c(/C=N/Nc2ccc(C(F)(F)F)cn2)c1O | 17.8 µM |
| C=CCOc1nc(-c2ccccc2Cl)nc2ccccc12 | > 35 µM (inactive) |
| C/C(=N\OCc1nc2ccccc2c(=O)n1/N=C/c1cc(C)cc([N+](=O)[O-])c1O)c1ccccc1 | > 35 µM (inactive) |
| O=C(c1ccc(OC2CCN(CCc3ccccc3)CC2)cc1)N1CCCC(CCCO)C1 (centres undefined) | > 35 µM (inactive) |
| CCCn1c(=NC(=O)c2c(-c3c(F)cccc3Cl)noc2C)c(C(=O)OCC)cc2c(=O)n3ccccc3nc21 | 22.2 µM |
| CCCN(CCC)C(=S)Nc1cc(C(=O)OC)ccc1C(=O)OC | > 35 µM (inactive) |
| COc1ccc(-c2csc(NNC3=NCCCCC3)n2)cc1 | 30.1 µM |
| O=C(CCCOc1ccc(Cl)cc1Cl)N/N=C/c1ccccc1O | 7.41 µM |
| CCCC(=O)NC(c1ccccc1)c1ccc2cccnc2c1O (centres undefined) | 4.71 µM |
| O=C(NCCCn1ccnc1)c1cc(-c2ccccc2)on1 | 3.8 µM |
| COC(=O)Nc1nnc(Cc2ccc(OC)cc2)s1 | > 35 µM (inactive) |
| Cc1ccc(OCCNC(=O)CCc2nc3sc4c(c3c(=O)[nH]2)CCCC4)cc1 | > 35 µM (inactive) |
| CN(Cc1ccccc1)C(=O)CC(=O)N(C)Cc1ccccc1 | > 35 µM (inactive) |
| CCOC(=O)C1CCCN(C(=O)c2ccc3nc(-c4ccccc4)c(-c4ccccc4)nc3c2)C1 (centres undefined) | > 35 µM (inactive) |
| O=C(N/N=C/c1ccc(F)cc1)c1cc(-c2ccc3c(c2)OCO3)n[nH]1 | 16.2 µM |
| CC1CCN(Cc2c(C(=O)N/N=C/c3cc(Cl)ccc3O)nnn2-c2nonc2N)CC1 | 13.9 µM |
| CCCC(=O)NC(c1ccccc1Cl)c1ccc2cccnc2c1O (centres undefined) | 6.66 µM |
| COc1ccc2[nH]c(C(=O)N/N=C/c3ccccc3OC)cc2c1 | > 35 µM (inactive) |
| CCCCCCCCCS(=O)(=O)N/N=C/c1cccc([N+](=O)[O-])c1 | > 35 µM (inactive) |
| C=CCc1c(C)nc2c(-c3ccccc3)cnn2c1N1CCOCC1 | > 35 µM (inactive) |
| CC(=O)Nc1cccc(NC(=O)CS(=O)(=O)c2cn(CC(=O)N3CCOCC3)c3ccccc23)c1 | > 35 µM (inactive) |
| CC(=O)c1cccc(N(C(=O)c2ccccn2)C(C(=O)NC2CCCCC2)c2ccccc2)c1 (centres undefined) | > 35 µM (inactive) |
| CC(=O)N1CCC(=NNC(=O)c2cc3ccccc3cc2O)CC1 | > 35 µM (inactive) |
| Cc1ccc(C)c(-c2cc(C(=O)Nc3cccc(C(=O)O)c3)c3ccccc3n2)c1 | > 35 µM (inactive) |
| COc1ccccc1NC(c1cccnc1)c1ccc2cccnc2c1O (centres undefined) | 25.9 µM |
| O=C(NNC(=O)c1ccccc1Br)c1ccc(Cl)cc1 | > 35 µM (inactive) |
| COc1ccc(CNC(=S)N/N=C/c2ccc(O)c(OC)c2)cc1 | > 35 µM (inactive) |
| Cc1nnc(-c2ccccc2)c(=O)n1/N=C/c1c(O)ccc2ccccc12 | 8.4 µM |
| CC(C)CC(NC(=O)c1ccccc1NC(=O)c1ccccc1)C(=O)O (centres undefined) | > 35 µM (inactive) |
| O=C(O)c1cccc(-n2cccc2/C=C2/SC(=O)N(CC(=O)N3CCCC3)C2=O)c1 | > 35 µM (inactive) |
| O=C1CCCC(O)=C1C=Nc1cccc(C(F)(F)F)c1 | > 35 µM (inactive) |
| CN1CCN(C2Cc3ccc(F)cc3Sc3cc(F)c(Cl)cc32)CC1 (centres undefined) | > 35 µM (inactive) |
| C/C(=N\O)C(=O)Nc1ccccc1 | > 35 µM (inactive) |
| Nc1ncnc2c1ncn2CCN1CCOCC1 | > 35 µM (inactive) |
| COc1ccc(CNC(=O)CN(CC2CCCO2)C(=O)CNS(=O)(=O)c2ccc(C)cc2)cc1 (centres undefined) | > 35 µM (inactive) |
| Cc1ccc(C(=O)CSc2cc(C)[nH]c(=O)n2)cc1 | > 35 µM (inactive) |
| CCOC(=O)c1c(-c2ccccc2)oc2ccc(OCC(O)CN(C)C)cc12 (centres undefined) | 33.8 µM |
| CCOc1cccc(-c2c(C(=O)N/N=C/c3ccc(Br)cc3)nnn2-c2nonc2N)c1 | > 35 µM (inactive) |
| Cc1ccc(/C=N\Nc2nc3ccc(Cl)cc3[nH]2)o1 | > 35 µM (inactive) |
| Cc1cccc(C(=O)OC(C)CN2CCCC2)c1 (centres undefined) | > 35 µM (inactive) |
| CCOc1ccccc1N(CC(=O)N/N=C/c1cc(Br)ccc1OC)S(C)(=O)=O | > 35 µM (inactive) |
